Data credit: PubChem BioAssay AID1963431

System: Rh18 complex spheroid viability, percent test/control
experiment_description: Anticancer human tumor Rh18 cell line growth inhibition [Asc]; active = viability on the fitted dose curve at most 10% of control; inactive = the rest;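 note: spheroids exposed to compound for 7 days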
assay_context: second compound 0.0949 µM; first compound 1 µM
Outcomes: yes = active, no = inactive

>  <molecule>
C=C(F)C(=O)N1CCN(c2nc(OCC3CCCN3C)nc3c2CCN(c2cccc4cccc(Cl)c24)C3)CC1CC#N (centres undefined) + CCN1C(C(=O)NC23CCC(C(=O)O)(CC2)CC3)C(c2cccc(Cl)c2F)C2(C(=O)Nc3cc(Cl)ccc32)C12CCCCC2

>  <assigned_class>
no

$$$$
>  <molecule>
COc1c(OCCCN2CCOCC2)ccc2c3n(c(=NC(=O)c4cnc(N)nc4)nc12)CCN3 + CCN1C(C(=O)NC23CCC(C(=O)O)(CC2)CC3)C(c2cccc(Cl)c2F)C2(C(=O)Nc3cc(Cl)ccc32)C12CCCCC2

>  <assigned_class>
yes

$$$$
>  <molecule>
C#Cc1c(F)ccc2cc(O)cc(-c3ncc4c(N5CC6CCC(C5)N6)nc(OCC56CCCN5CC(F)C6)nc4c3F)c12 (centres undefined) + CCN1C(C(=O)NC23CCC(C(=O)O)(CC2)CC3)C(c2cccc(Cl)c2F)C2(C(=O)Nc3cc(Cl)ccc32)C12CCCCC2

>  <assigned_class>
no

$$$$
>  <molecule>
C=CC(=O)N1CCN(c2nc(=O)n(-c3c(C)ccnc3C(C)C)c3nc(-c4c(O)cccc4F)c(F)cc23)C(C)C1 (centres undefined) + CCN1C(C(=O)NC23CCC(C(=O)O)(CC2)CC3)C(c2cccc(Cl)c2F)C2(C(=O)Nc3cc(Cl)ccc32)C12CCCCC2

>  <assigned_class>
no

$$$$
